Test system: A549-ACE2
test_summary: drug-induced phospholipidosis relative to tamoxifen; higher = more phospholipidosis
stated_conditions: 30 µM; 24 h
metric: drug-induced phospholipidosis (%)
The reply should be a number in %, with the unit left off.

Observe how each entry below is paired with its result.
compound: O=C(NCCN1CCC2(CC1)C(=O)NCN2c1cccc(F)c1)c1ccc2ccccc2c1
drug-induced phospholipidosis / %: 127
--
compound: Nc1ncnc2c1c(-c1cccc(OCc3ccccc3)c1)cn2C1CC(CN2CCCC2)C1 (stereo in doubt)
drug-induced phospholipidosis / %: 158
--
compound: c1cc2c(cc1C1CCCCC1)c1c3n2CCNC3CCC1 (centres undefined)
drug-induced phospholipidosis / %: 215

Here's the next entry for you.
Prompt line: # return recorded drug-induced phospholipidosis for input NCCC(Oc1ccc(C(F)(F)F)cc1)c1ccccc1 (centres undefined)
Response line: 130

###

Tested on: Calu-3
test_summary: cell viability relative to DMSO; higher = less toxic
stated_conditions: 72 h; 100 nM
Listed molecules paired with reported cell viability
Entry rule: numbers only, all in %.

Use these answered entries as a reference point.
molecule: CC(N)CCCC(C)(C)O (stereo unspecified)
cell viability, %: 103
--
molecule: CN[C@H](C(=O)N[C@H](C(=O)N(C)[C@H](/C=C(\C)C(=O)O)C(C)C)C(C)(C)C)C(C)(C)c1ccccc1
cell viability, %: 46.7
--
molecule: CCCCCCC[N+](CC)(CC)CCCCc1ccc(Cl)cc1
cell viability, %: 91.8
--
molecule: CCCCc1nc2cc(/C=C/C(=O)NO)ccc2n1CCN(CC)CC
cell viability, %: 65.5
--
molecule: CN(C(=O)CN(CCO)CC(=O)N(C)C(C)(C)Cc1ccccc1)C(C)(C)Cc1ccccc1
cell viability, %: 100

Next:
Prompt line: State, in one line, measured cell viability of `CCC(=O)N[C@@H]1Cc2ccccc2[C@H](c2ccccc2)C1`
Response line: 104

###

Each entry below carries its reported cell viability.
Test system: Calu-3
test_summary: cell viability relative to DMSO; higher = less toxic
stated_conditions: 72 h; 10 nM
Please state the figure in %; there is no need to write the unit.

molecule: Cc1cc2c(cc1C(F)(F)F)N(C(=O)Nc1ccc(Oc3cccnc3C)nc1)CC2
system_name: Calu-3
measured_result: 98.8

Prompt line: Tell me measured cell viability for CC[N+](CC)(CCNC(=O)C(=O)NCC[N+](CC)(CC)Cc1ccccc1Cl)Cc1ccccc1Cl [ambenonium] please.
Response line: 99.8

###

Below, each entry is listed with its recorded cell viability.
Tested on: Caco-2
test_summary: cell viability relative to DMSO; higher = less toxic
stated_conditions: 72 h; 10000 nM
# number only, unit % dropped from output

molecule: Cc1sc(C)c(C(=O)NC2(c3ccc(C(=O)O)cc3)CC2)c1Cc1ccc(C(F)(F)F)cc1 [MK-2894]
metric: cell viability
unit_info: %
measured_result: 101

molecule: C[C@]12CCC(=O)C=C1[C@@H]1C[C@@H]1[C@H]1[C@@H]3[C@@H]4C[C@@H]4[C@@]4(CCC(=O)O4)[C@@]3(C)CC[C@@H]12 [drospirenone]
metric: cell viability
unit_info: %
measured_result: 108

molecule: N=C1CCCN1Cc1[nH]c(=O)[nH]c(=O)c1Cl [tipiracil]
metric: cell viability
unit_info: %
measured_result: 98.6

molecule: O=C(O)c1ccc2c(c1)C(=O)N(c1cccc(Oc3ccc([N+](=O)[O-])cc3)c1)C2=O
metric: cell viability
unit_info: %
measured_result: 100

molecule: O=C(O)c1ccccc1 [benzoic-acid]
metric: cell viability
unit_info: %
measured_result: 98.7

molecule: S=C=Nc1ccc(N=C=S)cc1 [bitoscanate]
metric: cell viability
unit_info: %
measured_result: 103

molecule: CCC(CC)O[C@@H]1C=C(C(=O)O)C[C@H](N)[C@H]1NC(C)=O [oseltamivir-carboxylate]
metric: cell viability
unit_info: %
measured_result: 101

molecule: O=C(O)C1=CCCNC1 [guvacine]
metric: cell viability
unit_info: %
measured_result: 96.5

Prompt line: Report measured cell viability on Caco-2; entry: O=c1[nH]cc(F)c(=O)[nH]1 [5-fluorouracil]
Response line: 79.6
